// values below are reported melting point
Reported property: melting point

Molecule | Result
Nc1nc(NC2Cc3ccccc3N(Cc3ccc(F)cc3F)C2)c2cn[nH]c2n1 (stereo not drawn) | 110 to 114 °C
NC(=O)CC(c1cccc(F)c1)c1cccc(F)c1 | 103 to 105 °C
O=C(CCc1ccc(OCc2ccccc2)cc1)C(F)(F)F | 71 to 72 °C

====

melting point for assorted compounds

Compound smiles | melting point / °C
O=S(=O)(c1ccc(Cl)s1)N(CCO)CCO | 69
CCc1noc(-c2cn(-c3cccc(OC4CCCC4)c3)cn2)n1 | 132

====

The entries below are paired with their reported melting point.

Compound smiles | melting point
CSc1ccc(/C=C/C2=CC(=O)C(C)(C)O2)cc1 | 98 to 99.5 °C
CC(C)Oc1cc(CCC(=O)NS(=O)(=O)C(C)C)n(Cc2ccc(Cl)cc2Cl)n1 | 135 to 136 °C
CCCCCS(=O)(=O)NC(=O)c1ccc2nc(C)n(Cc3ccc(NC)cc3Cl)c2n1 | 185 to 186 °C
COc1cccc(C(=O)c2ccc(F)cc2F)c1 | 50 to 52 °C
COCCCNC(=O)c1cc2c(nc(C)n2C)c2c1CCC1(Cc3ccccc3C1)N2 | 188 to 189 °C
Cc1cc(NC(=O)N(C)c2ccccc2)cc(C)c1S(=O)(=O)C[N+](=O)[O-] | 117 to 118 °C

====

Each entry below carries its recorded melting point.

Compound | melting point
CCOc1cccc(NC(=O)N2CCc3cc(SC)c(C(F)(F)F)cc32)c1 | 233 to 234 °C
CCCc1nc(NC)nc(N2CCOCC2)n1 | 131 to 133 °C
NC=C1Cc2ccccc2C1=O | 163 to 165 °C
CC(=O)N1CCc2cc(-c3ccc4c(c3)CCC3N(C)C(=O)CCC43C)cc([N+](=O)[O-])c21 (single isomer, unassigned; (+)) | 235 to 240 °C
CCC[C@@H]1COC(=O)N1c1nc(-c2ccc(Br)cc2)cs1 | 114 to 116 °C
CC(C)C1COCc2nc3c(N)nc4ccc(O)cc4c3n21 (stereo unspecified) | 208 to 210 °C

====

This listing pairs compounds with measured melting point.

Compound | melting point
CCOC(=O)NNC(=O)NCCCC(=O)OC | 95 to 96 °C
CCCCOC1OC(CO)C(O)C(O)(N(CC2CCCCC2)C(=O)N(CCCl)N=O)C1O (configuration not stated) | 75 to 77 °C
Cc1sc2cc(CO)ccc2c1C(=O)O | 195 to 196 °C
COc1ccc([N+](=O)[O-])c(C=O)c1 | 89 to 90 °C
Cc1cc(C(=O)O)ccc1-c1c(C)cccc1C | 172 to 173 °C
CCn1c2ccccc2c2cc(OC)c(C(=O)O)cc21 | 130 to 147 °C
O=C(NCc1cc(C(F)(F)F)cc(C(F)(F)F)c1)c1c(-c2ccccc2)c2cccnc2c(=O)n1CCCO | 129 to 130 °C
COc1ccc(C(C#Cc2ccccc2)CC(C)=O)cc1OC1CCCC1 (racemic) | 62 to 64 °C
CCC1(C)C(=O)c2c(Cl)cc(C)c(C)c2C1=O (configuration not stated) | 97 °C
O=C(Nc1cccc(S(=O)(=O)C(F)(F)F)c1)c1cnn2c(C(F)F)cc(-c3ccc(C(F)(F)F)cc3)nc12 | 207 °C
O=C(NCCN1CCC(=C(c2ccc(F)cc2)c2ccc(F)cc2)CC1)C1CSC(c2cccnc2)N1 (configuration not stated) | 119 to 121 °C
CCCn1c(SC)nc2sccc2c1=O | 94 to 96 °C

====

melting point overview
Reported property: melting point

Compound | Result
O=C(NN1CCc2ccccc2C(Oc2ccc(C(F)(F)F)cc2)C1)C(F)(F)F (configuration not stated) | 192 to 195 °C
CN(C)c1ccc(C(=O)Nc2nc(-c3ccco3)c(C(=O)C3CCOCC3)s2)cc1 | 238 to 240 °C
CCCCNC(=O)CCC(=NNC(N)=S)c1ccccc1 | 64 to 68 °C
CC(C)c1nc(CCCO)n(C)c1Sc1cc(Cl)cc(Cl)c1 | 124 to 125 °C
CC(Cn1ccc(-c2ccccc2Cl)n1)C(=O)N(C)C (configuration not stated) | 87 to 88 °C
C(=C1CCC2(CC1)OCCO2)c1ccc(OCc2ccccc2)cc1 | 56 to 57 °C
CCOC(=O)c1c(C(C)C)c2ccccn2c1-c1ccc(F)cc1 | 51 to 52 °C
OCCCc1nc(-c2ccc(Cl)cc2)co1 | 41 to 42 °C
NC(CC(=O)O)c1ccc2c(c1)OCCO2 (configuration not stated) | 222 to 223 °C
CCOC(=O)c1cn(C2CC2)c2c(OC(F)F)c(F)c(F)cc2c1=O | 224 to 226 °C
CCCNC(=O)C1C=C2CC=C(OC)C=C2N1CCNC(C)=O (configuration not stated) | 127 to 128 °C
O=C(O)c1ccncc1C(=O)c1cc(F)ccc1F | 214 to 216 °C
CC(C)c1ccc2[nH]c(=O)c(C(=O)c3ccccc3)c(O)c2c1 | 270 °C
CN1CC=C(C(=O)N2c3ccccc3C(=O)Nc3cccc(Cl)c32)CC1 | 296 °C
COC(=O)Cn1c(C(=O)N(CCC2CCCCC2)c2nc(-c3cc(OC)c(C)cc3OC)cs2)cc2ccccc21 | 144 to 146 °C
CC(C)OCC(=O)C1CCC2C3CCC4CC(O)CCC4(C)C3C(=O)CC12C (configuration not stated) | 121 to 125 °C
O=c1c2ccccc2c(-c2ccc(Cl)cc2)nn1CCc1ccncc1 | 142 to 144 °C

====

A collection of compounds and their measured melting point
Reported property: melting point

Compound | Result
NS(=O)(=O)c1ccc(-n2nc(C(F)(F)F)cc2-c2ccc(F)cc2)cc1 | 165 to 166 °C
COC(=O)c1ccc([N+](=O)[O-])cc1S(=O)(=O)NC(C)(C)C | 122 to 124 °C
CCCCNc1n[nH]c2c1c(=O)n(CCC)c1ccccc21 | 169 to 172 °C
CCn1c(=O)c2[nH]c(C(C)C)nc2n(Cc2ccc(OC)c(OC3CCCC3)c2)c1=O | 208 to 209 °C
CC(C)C(=O)c1c[nH]c2c(COC(=O)c3ccccc3)cccc2c1=O | 158 to 160 °C
Cc1cc(=O)[nH]c2ccc(Br)cc12 | 292 to 299 °C
Cc1c(S(=O)(=O)c2ccc(=O)[nH]n2)oc2ccc(C(F)(F)F)cc12 | 244 to 245 °C
Cc1cc(C#N)c(=O)[nH]c1-c1ccccc1 | 250 to 257 °C
CCN1Cc2ccccc2N(CC)C(Nc2nc(Nc3cc4c(cc3OC)CCN(CC(=O)N(C)C)CC4)ncc2Cl)C1 (stereo not given) | 85 to 90 °C
O=c1cc(-c2n[nH]c3ccccc23)oc2ccccc12 | 237 to 238 °C
C[Si](C)(C)c1ccc(NC(=O)NC(=O)c2c(F)cccc2F)cc1 | 187 to 189 °C
Cc1c(NC(=O)c2ccc(OCc3ccc(F)cc3)cc2)ccc2cc(CN3CCCC3)cnc12 | 177 to 178 °C
O=C1Cc2cc(C(=O)N3CCN(C(=O)c4ccccc4)CC3)ccc2N1 | 268 to 270 °C
O=C(Cc1ccc(Cl)c(Cl)c1)NC1N=C(C2CC2)c2ccccc2N(CC(F)(F)F)C1=O (single isomer, unassigned; (+)) | 193 to 194 °C
COC(=O)c1cccc2[nH]c(-c3ccc(Cl)cc3)cc12 | 150 to 152 °C

====

Compound smiles | melting point
CCCCCS(=O)(=O)NC(=O)OCc1ccc(OC(C)C)cc1Oc1ncc(C(F)(F)F)cc1Cl | 70 to 73 °C
COC(=O)c1cc(/C=C/C(=O)O)ccc1Cl | 194 °C
S=C(NCc1ccccc1)Nc1nccs1 | 165 to 167 °C
O=C1CCCC(=O)C1c1ccccc1Cl | 148 to 149 °C

====

Listed below: melting point values for each entry.
Reported property: melting point

Compound | Reported property | Result
COc1ccc(-c2cc3ccc(OC)cc3[nH]2)cc1 | melting point | 228 to 230 °C
COc1cc(C=C2CCN(C(=O)NO)C2=O)cc(OC)c1O | melting point | 203 to 204 °C
CC(=O)OC1C(N2CCCCC2)CC2C3CCC4CCC(O)CC4(C)C3CCC21C (configuration not stated) | melting point | 239 to 240 °C
OC[C@H]1C[C@H]2CN(c3ncc(F)cn3)CCN2C1 | melting point | 123 to 124 °C
CCN(CC)CCNC(=O)c1cc(F)c2cc(I)ccc2n1 | melting point | 58 to 60 °C
C=CCN(C)c1nc(Cc2ccc(OC)c(OC)c2)nc2sc(C#N)c(C)c12 | melting point | 98 to 100 °C
C[C@@H](n1cnc2c(Cl)cc(Cl)cc2c1=O)[C@](O)(Cn1cncn1)c1ccc(F)cc1F | melting point | 158 to 160 °C
